# STUDY_CONDITIONS: 308.15 K; 101 kPa; Liquid; Frequency=2 MHz; Linear variable-path acoustic interferometer
MEASURED_ENDPOINT: speed of sound (m/s)

                                   compound  measured_endpoint  unit  numeric_value
0  C[NH+](C)C.O=S(=O)([O-])O [trimethylammonium hydrogen sulfate]     speed of sound   m/s           1556
1         C[S+](C)[O-] [dimethyl sulfoxide]     speed of sound   m/s           1460
2  C[NH+](C)C.O=P([O-])(O)O [trimethylammonium dihydrogen phosphate]     speed of sound   m/s           1661
3  CC(=O)[O-].C[NH+](C)C [trimethylammonium acetate]     speed of sound   m/s           1508

Values compiled from the NIST ThermoML archive (doi:10.1016/j.jct.2012.11.014).
